- Assay system: T1, recombinant human TfR1 (transferrin receptor protein 1) (human, UniProt P02786 89-760)
- T1 construct: Recombinant protein in SPR and ELISA; they were assigned to this molecule; also called hTfR1; huTfR1
- T1 sequence (P02786 89-760 limits assumed): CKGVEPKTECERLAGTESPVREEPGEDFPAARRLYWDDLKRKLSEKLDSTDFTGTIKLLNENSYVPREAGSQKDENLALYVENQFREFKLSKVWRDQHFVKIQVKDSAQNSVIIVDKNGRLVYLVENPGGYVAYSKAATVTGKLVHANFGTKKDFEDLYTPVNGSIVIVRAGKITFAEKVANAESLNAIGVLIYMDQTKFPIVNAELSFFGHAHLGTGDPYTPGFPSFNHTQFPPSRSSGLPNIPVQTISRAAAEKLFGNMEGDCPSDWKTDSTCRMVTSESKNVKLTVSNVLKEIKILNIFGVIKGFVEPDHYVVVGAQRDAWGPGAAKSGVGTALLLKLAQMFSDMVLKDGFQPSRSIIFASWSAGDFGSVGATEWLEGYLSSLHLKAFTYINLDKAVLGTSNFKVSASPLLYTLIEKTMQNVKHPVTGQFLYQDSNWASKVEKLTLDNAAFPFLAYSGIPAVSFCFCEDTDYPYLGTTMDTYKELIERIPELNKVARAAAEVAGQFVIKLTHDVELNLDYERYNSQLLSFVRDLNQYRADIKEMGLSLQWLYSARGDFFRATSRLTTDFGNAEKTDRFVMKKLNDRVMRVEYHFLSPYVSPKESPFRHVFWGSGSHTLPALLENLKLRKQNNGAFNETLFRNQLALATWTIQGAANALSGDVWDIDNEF
- Test summary: Biacore, d0; TfR1 species not stated
Measurement label: Kd (pM)
Value expressed in pM; do not type the unit.

Query: Kd; subject: humanized anti-TfR Fab 3M12 VH4/Vκ2 (Fab, V domains shown, also called 3M12 (VH4/Vk2)) VH: QVQLQESGPGLVKPSQTLSLTCTVTGYSITSGYYWNWIRQPPGKGLEWIGYITFDGANNYNPSLKNRVSISRDTSKNQFSLKLSSVTAEDTATYYCTRSSYDYDVLDYWGQGTTVTVSS VL: DIQMTQSPSSLSASVGDRVTITCRASQDISNFLNWYQQKPGQPVKLLIYYTSRLHSGVPSRFSGSGSGTDFTLTISSLQPEDFATYFCQQGHTLPYTFGQGTKLEIKR
396

Consider the binder humanized anti-TfR Fab 3A4 VH3 (N54S)/Vκ4 (Fab, V domains shown, also called 3A4 (VH3-N54S/Vk4)) VH: EVQLVQSGSELKKPGASVKVSCTASGFNIKDDYMYWVRQPPGKGLEWIGWIDPESGDTEYASKFQDRVTVTADTSTNTAYMELSSLRSEDTAVYYCTLWLRRGLDYWGQGTLVTVSS VL: DIVMTQSPLSLPVTPGEPASISCRSSKSLLHSNGYTYLFWFQQRPGQSPRLLIYRMSNLASGVPDRFSGSGSGTDFTLKISRVEAEDVGVYYCMQHLEYPFTFGGGTKVEIKR and give its measured Kd.
1340
